- tgt: Muscarinic acetylcholine receptor M1 (Homo sapiens, UniProt P11229, E170K)
- Sequence (P11229 whole entry E170K): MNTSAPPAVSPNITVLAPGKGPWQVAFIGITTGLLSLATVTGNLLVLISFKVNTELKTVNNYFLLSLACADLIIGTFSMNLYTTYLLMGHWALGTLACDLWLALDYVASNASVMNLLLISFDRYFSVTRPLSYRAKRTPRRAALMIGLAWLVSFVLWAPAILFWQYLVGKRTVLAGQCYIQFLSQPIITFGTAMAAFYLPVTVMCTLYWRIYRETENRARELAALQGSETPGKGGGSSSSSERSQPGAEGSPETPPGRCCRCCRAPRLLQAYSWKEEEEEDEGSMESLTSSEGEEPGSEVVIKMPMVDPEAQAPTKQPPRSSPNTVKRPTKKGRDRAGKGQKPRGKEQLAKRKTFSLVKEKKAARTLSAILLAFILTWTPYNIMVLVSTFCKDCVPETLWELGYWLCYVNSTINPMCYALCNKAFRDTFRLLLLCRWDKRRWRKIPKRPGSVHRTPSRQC
Quick list: EC50 per entry.
Please answer in the form of a number followed by its unit of measurement.

[
  {
    "smiles.representation": "CN1CCC=C(c2nsnc2OCCOCCOCCOCCOc2nsnc2C2=CCCN(C)C2)C1",
    "EC50": "0.01 µM"
  }
]

Turning now to a further record.
Data request, read-out EC50, for COc1nsnc1OCCOCCOCCOCCOc1nsnc1C1=CCCN(C)C1
2 µM

---

- tgt: Muscarinic acetylcholine receptor M1 (Homo sapiens)
- procedure.summary: Agonist activity at human M1 receptor expressed in A9 L cells assessed as stimulation of phosphoinositide hydrolysis relative to carbachol
- Format: functional, cell-based
- test.settings: L929
So basically: is Smax under 20%? Then T. Not under? Then F.

Use these answered entries as a reference point.
[
  {
    "smiles.representation": "CCCCCCOc1nsnc1C1=CCCN(C)C1",
    "category.label": "F"
  },
  {
    "smiles.representation": "COc1nsnc1OCCOCCOc1nsnc1C1=CCCN(C)C1",
    "category.label": "T"
  },
  {
    "smiles.representation": "COc1nsnc1OCCCOCCCOCCCOc1nsnc1C1=CCCN(C)C1",
    "category.label": "F"
  },
  {
    "smiles.representation": "CN1CCC=C(c2nsnc2OCCOCCOCCOCCO)C1",
    "category.label": "T"
  },
  {
    "smiles.representation": "COc1nsnc1OCCOCCOCCOCCOc1nsnc1C1=CCCN(C)C1",
    "category.label": "F"
  },
  {
    "smiles.representation": "CN1CCC=C(c2nsnc2OCCOCCOCCOCCOc2nsnc2C2=CCCN(C)C2)C1",
    "category.label": "F"
  },
  {
    "smiles.representation": "COc1nsnc1OCCOCCOCCOc1nsnc1C1=CCCN(C)C1",
    "category.label": "T"
  },
  {
    "smiles.representation": "COc1nsc(OCCCOCCCOCCCOc2nsnc2C2=CCCN(C)C2)n1",
    "category.label": "F"
  }
]

# next molecule below
Lab note: Smax threshold 20%. Does this molecule come in strictly under it? COc1nsnc1OCCOCCOCCOCCOCCOc1nsnc1C1=CCCN(C)C1
F
